Source of measurements: PubChem BioAssay (NCI)

Test system: MDA-MB-231 breast
ASSAY_OVERVIEW: NCI tumour cell line growth inhibition, 48 h
I'd appreciate it if you could supply TGI values for the items below.

Given the entry `COc1ccc2c(c1)C(N)=C(Cc1ccncc1)C2=O` , what TGI was observed with MDA-MB-231 breast?
> 100 µM

Please state recorded TGI (tested on MDA-MB-231 breast) of `COc1cc(-c2ccc(NC(=O)NC3CC3)c(OC)c2)ccc1NC(=O)NC1CC1`
> 100 µM

Reported TGI for MDA-MB-231 breast, given `Cc1c(-c2ccccc2)c(C#N)c2nnn(-c3cccc(Cl)c3)c(=O)n12` ?
72.9 µM

What is its TGI for MDA-MB-231 breast? Entry: `NC(N)=NS(=O)(=O)c1ccc(NC(=O)c2ccc3[nH]c4ccccc4c(=O)c3c2)cc1`
> 100 µM

Enter reported TGI observed with MDA-MB-231 breast for COC(=O)C(=O)C(C(=O)C(=O)Nc1ccc(C)cc1)c1nc2ccc(C(=O)c3ccccc3)cc2[nH]c1=O (stereo not given)
> 100 µM

---

Tested on: 786-0 renal
ASSAY_OVERVIEW: NCI tumour cell line growth inhibition, 48 h; in the data active = GI50 below about 0.43 µM; inactive = the rest
Lab note: assign the record to one of 1 (active), 0 (inactive)

Please indicate how the test categorized `Cc1cn2c(/C=C3/C(=O)Nc4ccc(F)cc43)c(C)nc2s1` .
0

Dear colleague, could you share the recorded outcome for `COC(=O)c1ccc2c(c1)c1c(C)c3ccncc3c(C)c1n2C` when you have a moment?
1

In this assay, the call recorded for `COc1ccc(CNc2cnc3cc(N)cc(N)c3n2)cc1` was what?
0

---

System: SF-268 CNS
ASSAY_OVERVIEW: NCI tumour cell line growth inhibition, 48 h
PROPERTY_LABEL: TGI

# query: TGI of entry `O=C1[C@H](Cl)[C@H]2c3cc4ccccc4nc3Oc3ccccc3N12`
> 100 µM

For the compound `CCOC(=O)c1cc(-c2ccc(OC)c(OC)c2)[nH]c1N/N=C/c1c(Cl)cccc1Cl` , what TGI is on record?
39.9 µM

Any idea what its TGI is? The compound is `CC1=NN(C(=O)c2ccc(Cl)cc2)C(=O)/C1=C/c1ccco1`
> 100 µM

Field request: TGI | item: `N#Cc1cc(NC(=O)c2ccccc2)c(=O)n2c1[nH]c1ccccc12`
> 100 µM

I have this compound here, `c1ccc(C2=Nc3cccc4cccc(c34)N2)cc1` , and I need its recorded TGI.
> 90.6 µM

Returns the measured TGI for the input compound. Input: CCOC(=O)C1SC(=Nc2ccc(Cl)cc2C)N=C1C (stereo not given)
94.5 µM

Entry `O=C(/C=C/c1ccc(O)c(O)c1)NCCc1ccc(-c2ccccc2)cc1` has what TGI?
> 100 µM

Given the compound CC(=O)OCC(OC(C)=O)C(OC(C)=O)C(OC(C)=O)C(/C=N\Nc1nc2ccccc2c(=O)[nH]1)=N/Nc1nc2ccccc2c(=O)[nH]1 (stereo not given) , what is its reported TGI?
> 100 µM

Look at this compound and give its reported TGI. `CCCCCCCCCOC(=S)NCCCCC`
> 100 µM

Which TGI value is on record for COc1ccc(N2C(=O)/C(=C\c3cccc(Oc4ccccc4)c3)SC2c2ccccc2)cc1 (stereo not given) ?
> 100 µM

---

Please provide measured TGI for the entries that follow.
Tested on: HOP-62 NSCLC
ASSAY_OVERVIEW: NCI tumour cell line growth inhibition, 48 h

Return TGI measured with HOP-62 NSCLC given this molecule: `COc1ccc2c(c1)C(N)=C(Cc1ccncc1)C2=O`
> 100 µM

// map `O=C(O)CCSC(=S)Nc1cccc(F)c1` to recorded TGI (system: HOP-62 NSCLC)
> 100 µM

Report TGI for `O=[N+]([O-])c1nccn1CCCNCCCn1ccnc1[N+](=O)[O-]` tested on HOP-62 NSCLC.
> 100 µM

Can you look up TGI on HOP-62 NSCLC for `CN(C)CCCNC(=O)c1cc(NC(=O)c2cc(NC(=O)[C@@H]3C[C@H]3C(=O)Nc3cc(C(=O)Nc4cc(C(=O)NCCCN(C)C)n(C)c4)n(C)c3)cn2C)cn1C` ?
> 100 µM

So what TGI did `COC(=O)C1=C(C(=O)OC)C2OC1c1cc3ccccc3cc12` get with HOP-62 NSCLC?
34.7 µM

Value wanted: TGI (HOP-62 NSCLC) of entry `CCN(CC)CCNc1ccc2nnn3c4ccccc4c(=O)c1c23`
15.8 µM

Request: TGI, test system HOP-62 NSCLC, entry COC(=O)C(=O)C(C(=O)C(=O)Nc1ccc(C)cc1)c1nc2ccc(C(=O)c3ccccc3)cc2[nH]c1=O (centres undefined)
> 100 µM

Give the reported TGI for `O=C(N/N=C(/COc1cccc(Cl)c1)N=Cc1cccnc1)c1ccncc1` (system: HOP-62 NSCLC).
> 100 µM

Field: TGI (HOP-62 NSCLC). Entry: O=C(O)C12C3CCC(O3)C1(C(=O)O)C1CCC2O1 (centres undefined)
> 100 µM

Lab note: need TGI with HOP-62 NSCLC for entry `C[C@@H]1CC[C@@H]2[C@@H](C)C[C@H]3[C@@H]4C(C)(C)OC(=O)[C@]4(C)C(=O)[C@@]23C1=O` , please look it up.
> 100 µM

Record `CCOC(=O)N1[C@@H]2CCC[C@@H]2C(=O)[C@@H]2CCC[C@@H]21` : what is its TGI with HOP-62 NSCLC?
> 100 µM

Missing value: TGI, HOP-62 NSCLC, entry COC1(CC[C@H](C)COC2OC(CO)C(O)C(O)C2O)O[C@H]2C[C@H]3[C@@H]4CC=C5C[C@@H](OC6OC(CO)C(O)C(OC7OC(CO)C(O)C(O)C7O)C6OC6OC(C)C(O)C(O)C6O)CC[C@]5(C)[C@H]4CC[C@]3(C)[C@H]2[C@@H]1C (some centres undefined) . Fill in?
12.4 µM

Test system HOP-62 NSCLC; read-out TGI; what value for CN(C)c1ccc(C2ON=C(c3ccccc3)N2C23CC4CC(CC(C4)C2)C3)cc1 (centres undefined) ?
> 10 µM

Any idea what TGI came out for `COc1cc2ncn(-c3cc(OCc4ccccc4C(F)(F)F)c(C(C)=O)s3)c2cc1OC` on HOP-62 NSCLC?
> 25 µM

Record lookup: for HOP-62 NSCLC, what TGI belongs to `COc1cc(/C=C\c2ccc(OC(C)=O)cc2)cc(OC)c1OC` ?
> 100 µM

What reported TGI corresponds to `CCCCCCCCCc1c(O)c(O)c(CCCCCCCCC)c(CCCCCCCCC)c1CCCCCCCCC` on HOP-62 NSCLC?
> 100 µM

Any idea what TGI came out for CCOC(=O)C1SC(=Nc2ccc(Cl)cc2C)N=C1C (centres undefined) on HOP-62 NSCLC?
43.2 µM

Give HOP-62 NSCLC TGI for `Cc1cc(C)nc(NS(=O)(=O)c2ccc(NC(=O)c3ccc(Cl)c4c(Nc5ccc(S(=O)(=O)N=C(N)N)cc5)c5ccccc5nc34)cc2)n1`
> 100 µM

Please state recorded TGI (tested on HOP-62 NSCLC) of O=C1C2ON3c4ccccc4C(=O)C3(c3ccccc3)C2C(=O)N1c1ccccc1 (centres undefined)
> 100 µM

Lab request: please report TGI under test system HOP-62 NSCLC for `CCCN1C(=O)/C(=C/c2ccc(O)cc2)SC1=Nc1ccc(OC)cc1`
80 µM

Could you share what TGI was measured for `COC(=O)c1cc(C)n(CN(Cc2ccccc2)Cn2nc(C(=O)OC)cc2C)n1` , tested on HOP-62 NSCLC?
> 100 µM

Observed TGI on HOP-62 NSCLC for BrCC(Br)(c1ccccc1)c1ccccc1-c1cc(-c2ccccc2)cc(-c2ccccc2)n1 (centres undefined) , please.
23.2 µM

Notebook: pull reported TGI for HOP-62 NSCLC, entry `O=c1nc2sc3ccc4ccccc4c3n2[nH]c1=O`
71.5 µM

Lab note: need TGI for `Cc1nc(Nc2ccccc2)sc1C(=O)CC(=O)C(=O)NC12CC3CC(CC(C3)C1)C2` on HOP-62 NSCLC, anyone have it?
> 100 µM

Give TGI (HOP-62 NSCLC) of the following molecule: `COc1ccc(-c2nc(-c3cnccn3)n(COCCO)n2)cc1`
> 100 µM

Please provide the recorded TGI for `O=C(Nc1cccnc1)c1ccc2ccc3ccc(C(=O)Nc4cccnc4)nc3c2n1` , tested on HOP-62 NSCLC.
> 100 µM

Lab note: need TGI for CC(NC(NC(C)C12CC3CC(CC(C3)C1)C2)=C(C(Cl)=C(Cl)Cl)[N+](=O)[O-])C12CC3CC(CC(C3)C1)C2 (centres undefined) on HOP-62 NSCLC, anyone have it?
> 100 µM

Can you look up TGI on HOP-62 NSCLC for `Nc1nc(N)c(N=Nc2ccc(C(=O)O)c(O)c2)c(N)n1` ?
> 100 µM

# value lookup — system HOP-62 NSCLC, readout TGI, item CC1CC(C)C2=NOS3=C2C1=NO3 (centres undefined)
> 100 µM
